compounds and their reported log10 of Ki
molecular target: 3-beta-hydroxysteroid-Delta(8),Delta(7)-isomerase (Cavia porcellus, UniProt Q60490); assay: Inhibition of [3H]-emopamil binding to Sterol delta 8-delta 7 isomerase in guinea pig liver membrane
Sequence (Q60490 whole entry): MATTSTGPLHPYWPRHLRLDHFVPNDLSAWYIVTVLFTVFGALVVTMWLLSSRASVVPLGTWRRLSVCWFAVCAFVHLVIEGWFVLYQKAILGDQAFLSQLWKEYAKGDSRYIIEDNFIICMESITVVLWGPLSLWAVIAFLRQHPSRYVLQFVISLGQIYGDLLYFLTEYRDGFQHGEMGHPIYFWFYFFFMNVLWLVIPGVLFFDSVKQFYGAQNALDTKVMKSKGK
// stored as log10 of Ki expressed in µM

CC1CCN(CC[C@@H](C)Oc2ccc(Cl)cc2)CC1    -1.52
CC1CCN([C@H](C)CCOc2ccc(Cl)cc2)CC1    -2.11
CC1CCN([C@@H](C)CCOc2ccc(Cl)cc2)CC1    -1.43
CC1CCN(C[C@@H](C)COc2ccc(Cl)cc2)CC1    -1.73
CC1CCN(C[C@H](C)Oc2ccc(Cl)cc2)CC1    -1.45

Lookup: Which value of log10 of Ki has been reported for `CC1CCN(C[C@H](C)COc2ccc(Cl)cc2)CC1` in the records?
Found: -1.84

Lookup: Can you share its log10 of Ki? I mean this compound: `CC1CCN(CCCOc2ccc(Cl)cc2)CC1`
Found: -2.02

Lookup: Which log10 of Ki is listed for `CC1CCN([C@@H](C)COc2ccc(Cl)cc2)CC1` ?
Found: -2.43

Lookup: Suppose we examine the compound `CC1CCN(C[C@@H](C)Oc2ccc(Cl)cc2)CC1` ; what log10 of Ki value has been reported?
Found: -2.47

Lookup: Tell me the measured log10 of Ki of `CC1CCN(CC[C@H](C)Oc2ccc(Cl)cc2)CC1` , please.
Found: -1.92

Lookup: # lookup: log10 of Ki of CC(C(O)c1ccc(O)cc1)N1CCC(Cc2ccccc2)CC1 (racemic)
Found: -2.57

Lookup: Looking for the measured log10 of Ki of `CC1CCN([C@H](C)COc2ccc(Cl)cc2)CC1` , can you help?
Found: -1.56

Lookup: Name the recorded log10 of Ki for `CC1CCN(CCOc2ccc(Cl)cc2)CC1` .
Found: -2.43
